Property: viability, T/C; scope: individual molecules
System: 282377-053-R-J1-PDC complex spheroid viability
procedure summary: Anticancer human tumor 282377-053-R-J1-PDC patient-derived colon adenocarcinoma cell line growth inhibition [RAS]
assay conditions: second compound 0.3 µM; first compound 0.316 µM; stronger effect = lower value
measurement name: viability, T/C (%)

INSERT INTO assay_data (molecule, assay_target, uom, value_reported) VALUES
  ('Cc1nc(N2CCC3(CC2)COC(C)C3N)c(CO)nc1Sc1ccnc(N)c1Cl (stereo not drawn) + CCn1c(-c2cc(N3CCN(C)CC3)cnc2C(C)OC)c2c3cc(ccc31)-c1csc(n1)CC(NC(=O)C1CC1C)C(=O)N1CCCC(N1)C(=O)OCC(C)(C)C2', '282377-053-R-J1-PDC complex spheroid viability', '%', 91.1),
  ('NC1c2ccccc2OC12CCN(c1cnc3c(N4CCCc5ncccc54)n[nH]c3n1)CC2 (stereo not drawn) + CCn1c(-c2cc(N3CCN(C)CC3)cnc2C(C)OC)c2c3cc(ccc31)-c1csc(n1)CC(NC(=O)C1CC1C)C(=O)N1CCCC(N1)C(=O)OCC(C)(C)C2', '282377-053-R-J1-PDC complex spheroid viability', '%', 105),
  ('Nc1ccn(C2OC(CO)C(O)C2(F)F)c(=O)n1 (stereo not drawn) + CCn1c(-c2cccnc2C(C)OC)c2c3cc(ccc31)N1CCOC(CC(NC(=O)C(C(C)C)N(C)C(=O)C3(F)CCN(C(=O)C#CC(C)(C)N(C)C)CC3)C(=O)N3CCCC(N3)C(=O)OCC(C)(C)C2)C1', '282377-053-R-J1-PDC complex spheroid viability', '%', 90.9),
  ('CC(=O)OC12COC1CC(O)C1(C)C(=O)C(O)C3=C(C)C(OC(=O)C(O)C(NC(=O)OC(C)(C)C)c4ccccc4)CC(O)(C(OC(=O)c4ccccc4)C21)C3(C)C (stereo not drawn) + CCn1c(-c2cc(N3CCN(C)CC3)cnc2C(C)OC)c2c3cc(ccc31)-c1csc(n1)CC(NC(=O)C1CC1C)C(=O)N1CCCC(N1)C(=O)OCC(C)(C)C2', '282377-053-R-J1-PDC complex spheroid viability', '%', 47.9),
  ('CC(Nc1ccc2c(c1)OCCn1cc(N3C(=O)OCC3C(F)F)nc1-2)C(N)=O (stereo not drawn) + CCn1c(-c2cccnc2C(C)OC)c2c3cc(ccc31)N1CCOC(CC(NC(=O)C(C(C)C)N(C)C(=O)C3(F)CCN(C(=O)C#CC(C)(C)N(C)C)CC3)C(=O)N3CCCC(N3)C(=O)OCC(C)(C)C2)C1', '282377-053-R-J1-PDC complex spheroid viability', '%', 96.7),
  ('C=CC(=O)Nc1cc(Nc2nccc(-c3cn(C)c4ccccc34)n2)c(OC)cc1N(C)CCN(C)C + CCn1c(-c2cc(N3CCN(C)CC3)cnc2C(C)OC)c2c3cc(ccc31)-c1csc(n1)CC(NC(=O)C1CC1C)C(=O)N1CCCC(N1)C(=O)OCC(C)(C)C2', '282377-053-R-J1-PDC complex spheroid viability', '%', 98.6),
  ('NC1c2ccccc2OC12CCN(c1cnc3c(N4CCCc5ncccc54)n[nH]c3n1)CC2 (stereo not drawn) + CCn1c(-c2cccnc2C(C)OC)c2c3cc(ccc31)N1CCOC(CC(NC(=O)C(C(C)C)N(C)C(=O)C3(F)CCN(C(=O)C#CC(C)(C)N(C)C)CC3)C(=O)N3CCCC(N3)C(=O)OCC(C)(C)C2)C1', '282377-053-R-J1-PDC complex spheroid viability', '%', 95.5),
  ('CC1(O)CCCC1n1c(=O)c(C(F)F)cc2cnc(NC3CCN(S(C)(=O)=O)CC3)nc21 (stereo not drawn) + CCn1c(-c2cccnc2C(C)OC)c2c3cc(ccc31)N1CCOC(CC(NC(=O)C(C(C)C)N(C)C(=O)C3(F)CCN(C(=O)C#CC(C)(C)N(C)C)CC3)C(=O)N3CCCC(N3)C(=O)OCC(C)(C)C2)C1', '282377-053-R-J1-PDC complex spheroid viability', '%', 146);

###

Test system: 282377-053-R-J1-PDC complex spheroid viability
procedure summary: Anticancer human tumor 282377-053-R-J1-PDC cell line growth inhibition [RAS];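 note: spheroids exposed to agents for seven days before readout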
assay conditions: curve of first compound; second compound 0.316 µM
measurement name: IC50

INSERT INTO assay_data (compound, assay_target, measurement_name, value_reported) VALUES
  ('C=CC(=O)Nc1cc(Nc2nccc(-c3cn(C)c4ccccc34)n2)c(OC)cc1N(C)CCN(C)C + C#Cc1c(F)ccc2cc(O)cc(-c3ncc4c(N5CC6CCC(C5)N6)nc(OCC56CCCN5CC(F)C6)nc4c3F)c12', '282377-053-R-J1-PDC complex spheroid viability', 'IC50', '> 1000 nM'),
  ('CC1(O)CCCC1n1c(=O)c(C(F)F)cc2cnc(NC3CCN(S(C)(=O)=O)CC3)nc21 (centres undefined) + C#Cc1c(F)ccc2cc(O)cc(-c3ncc4c(N5CC6CCC(C5)N6)nc(OCC56CCCN5CC(F)C6)nc4c3F)c12', '282377-053-R-J1-PDC complex spheroid viability', 'IC50', '6100 nM'),
  ('CCC(CC)c1cc(NC2CCC(N)C2)n2nccc2n1 (centres undefined) + C#Cc1c(F)ccc2cc(O)cc(-c3ncc4c(N5CC6CCC(C5)N6)nc(OCC56CCCN5CC(F)C6)nc4c3F)c12', '282377-053-R-J1-PDC complex spheroid viability', 'IC50', '1860 nM'),
  ('O=C(c1ccc(F)c(F)c1Nc1ccc(I)cc1F)N1CC(O)([C@@H]2CCCCN2)C1 + C#Cc1c(F)ccc2cc(O)cc(-c3ncc4c(N5CC6CCC(C5)N6)nc(OCC56CCCN5CC(F)C6)nc4c3F)c12', '282377-053-R-J1-PDC complex spheroid viability', 'IC50', '50.4 nM'),
  ('Cc1nc(N2CCC3(CC2)COC(C)C3N)c(CO)nc1Sc1ccnc(N)c1Cl (centres undefined) + C#Cc1c(F)ccc2cc(O)cc(-c3ncc4c(N5CC6CCC(C5)N6)nc(OCC56CCCN5CC(F)C6)nc4c3F)c12', '282377-053-R-J1-PDC complex spheroid viability', 'IC50', '> 10000 nM'),
  ('CC1(C)CCC(Nc2ncc(C(F)(F)F)c(-c3c[nH]c4c(P(C)(C)=O)c(C#N)ccc34)n2)CN1 (centres undefined) + C=CC(=O)N1CCN(c2nc(OCC3CCCN3C)nc3c(F)c(-c4nc(N)cc(C)c4C(F)(F)F)c(Cl)cc23)C(C)C1', '282377-053-R-J1-PDC complex spheroid viability', 'IC50', '> 300 nM'),
  ('CCN1CCN(Cc2ccc(Nc3ncc(F)c(-c4cc(F)c5nc(C)n(C(C)C)c5c4)n3)nc2)CC1 + C#Cc1c(F)ccc2cc(O)cc(-c3ncc4c(N5CC6CCC(C5)N6)nc(OCC56CCCN5CC(F)C6)nc4c3F)c12', '282377-053-R-J1-PDC complex spheroid viability', 'IC50', '> 1000 nM'),
  ('CCc1c2c(nc3ccc(O)cc13)-c1cc3c(c(=O)n1C2)COC(=O)[C@]3(O)CC + C=CC(=O)N1CCN(c2nc(OCC3CCCN3C)nc3c(F)c(-c4nc(N)cc(C)c4C(F)(F)F)c(Cl)cc23)C(C)C1', '282377-053-R-J1-PDC complex spheroid viability', 'IC50', '> 300 nM'),
  ('CC(C)n1nc(-c2ccc3oc(N)nc3c2)c2c(N)ncnc21 + C#Cc1c(F)ccc2cc(O)cc(-c3ncc4c(N5CC6CCC(C5)N6)nc(OCC56CCCN5CC(F)C6)nc4c3F)c12', '282377-053-R-J1-PDC complex spheroid viability', 'IC50', '88.1 nM'),
  ('Nc1ccn(C2OC(CO)C(O)C2(F)F)c(=O)n1 (centres undefined) + C#Cc1c(F)ccc2cc(O)cc(-c3ncc4c(N5CC6CCC(C5)N6)nc(OCC56CCCN5CC(F)C6)nc4c3F)c12', '282377-053-R-J1-PDC complex spheroid viability', 'IC50', '440 nM'),
  ('Cc1nc(N2CCC3(CC2)COC(C)C3N)c(CO)nc1Sc1ccnc(N)c1Cl (centres undefined) + C=CC(=O)N1CCN(c2nc(OCC3CCCN3C)nc3c(F)c(-c4nc(N)cc(C)c4C(F)(F)F)c(Cl)cc23)C(C)C1', '282377-053-R-J1-PDC complex spheroid viability', 'IC50', '> 10000 nM'),
  ('C[C@@H](NC(=O)c1ncnc(N)c1Cl)c1ncc(C(=O)Nc2cc(C(F)(F)F)c(Cl)cn2)s1 + C#Cc1c(F)ccc2cc(O)cc(-c3ncc4c(N5CC6CCC(C5)N6)nc(OCC56CCCN5CC(F)C6)nc4c3F)c12', '282377-053-R-J1-PDC complex spheroid viability', 'IC50', '> 10000 nM'),
  ('CC(=O)OC12COC1CC(O)C1(C)C(=O)C(O)C3=C(C)C(OC(=O)C(O)C(NC(=O)OC(C)(C)C)c4ccccc4)CC(O)(C(OC(=O)c4ccccc4)C21)C3(C)C (centres undefined) + C=CC(=O)N1CCN(c2nc(OCC3CCCN3C)nc3c(F)c(-c4nc(N)cc(C)c4C(F)(F)F)c(Cl)cc23)C(C)C1', '282377-053-R-J1-PDC complex spheroid viability', 'IC50', '< 31.6 nM'),
  ('O=C(c1ccc(F)c(F)c1Nc1ccc(I)cc1F)N1CC(O)([C@@H]2CCCCN2)C1 + C=CC(=O)N1CCN(c2nc(OCC3CCCN3C)nc3c(F)c(-c4nc(N)cc(C)c4C(F)(F)F)c(Cl)cc23)C(C)C1', '282377-053-R-J1-PDC complex spheroid viability', 'IC50', '145 nM'),
  ('CC(C)n1nc(-c2ccc3oc(N)nc3c2)c2c(N)ncnc21 + C=CC(=O)N1CCN(c2nc(OCC3CCCN3C)nc3c(F)c(-c4nc(N)cc(C)c4C(F)(F)F)c(Cl)cc23)C(C)C1', '282377-053-R-J1-PDC complex spheroid viability', 'IC50', '> 100 nM'),
  ('NC1c2ccccc2OC12CCN(c1cnc3c(N4CCCc5ncccc54)n[nH]c3n1)CC2 (centres undefined) + C#Cc1c(F)ccc2cc(O)cc(-c3ncc4c(N5CC6CCC(C5)N6)nc(OCC56CCCN5CC(F)C6)nc4c3F)c12', '282377-053-R-J1-PDC complex spheroid viability', 'IC50', '> 10000 nM'),
  ('NC1c2ccccc2OC12CCN(c1cnc3c(N4CCCc5ncccc54)n[nH]c3n1)CC2 (centres undefined) + C=CC(=O)N1CCN(c2nc(OCC3CCCN3C)nc3c(F)c(-c4nc(N)cc(C)c4C(F)(F)F)c(Cl)cc23)C(C)C1', '282377-053-R-J1-PDC complex spheroid viability', 'IC50', '> 10000 nM'),
  ('CC(Nc1ccc2c(c1)OCCn1cc(N3C(=O)OCC3C(F)F)nc1-2)C(N)=O (centres undefined) + C=CC(=O)N1CCN(c2nc(OCC3CCCN3C)nc3c(F)c(-c4nc(N)cc(C)c4C(F)(F)F)c(Cl)cc23)C(C)C1', '282377-053-R-J1-PDC complex spheroid viability', 'IC50', '> 10000 nM'),
  ('CCC(CC)c1cc(NC2CCC(N)C2)n2nccc2n1 (centres undefined) + C=CC(=O)N1CCN(c2nc(OCC3CCCN3C)nc3c(F)c(-c4nc(N)cc(C)c4C(F)(F)F)c(Cl)cc23)C(C)C1', '282377-053-R-J1-PDC complex spheroid viability', 'IC50', '1860 nM');
